# Test system: TOV-21G
# Run Description: cell viability relative to DMSO control (MTS) (fraction of DMSO control); higher = more viable cells / less growth inhibition
# Assay Conditions: 10 µM; 48 h
// thresholds for cell viability classes: 0 (below 0.8), 1 (0.8 to below 1), 2 (1 or more)

Compound: Cc1ccc2nc(NCCN)c3ncc(C)n3c2c1
Class Label: 0
--
Compound: N=C(N)NC(=O)c1nc(Cl)c(N)nc1N [Amiloride]
Class Label: 2
--
Compound: CC(C)c1cc(/C=C(\C#N)C(=O)NCCCc2ccccc2)cc(C(C)C)c1O
Class Label: 1
--
Compound: Cc1ccc(NC(=O)c2cccc(N(C)C)c2)cc1NC(=O)c1ccc(O)cc1
Class Label: 1
--
Compound: Cc1[nH]c(/C=C2\C(=O)Nc3ccc(S(=O)(=O)N(C)c4cccc(Cl)c4)cc32)c(C)c1C(=O)N1CCN(C)CC1
Class Label: 0
--
Compound: COc1cc2/c(=N/c3ccc(Br)cc3F)nc[nH]c2cc1OCC1CCN(C)CC1
Class Label: 0
--
Compound: Ic1cccc(CSc2nnc(-c3ccncc3)o2)c1
Class Label: 2
--
Compound: Cc1cc(C=C2C(=O)C=CC2=O)cc(C)c1O
Class Label: 2
--
Compound: C[C@@H]1C[C@H]2O[C@@H]2/C=C\C=C\C(=O)Cc2c(Cl)c(O)cc(O)c2C(=O)O1 [Radicicol]
Class Label: 0
--
Compound: Cc1cn(-c2cc(NC(=O)c3ccc(C)c(Nc4nccc(-c5cccnc5)n4)c3)cc(C(F)(F)F)c2)cn1
Class Label: 0
--
Compound: CC(C)C(=O)Nc1ccc([N+](=O)[O-])c(C(F)(F)F)c1 [Flutamide]
Class Label: 2
--
Compound: c1ccc2c(-c3cnn4cc(-c5ccc(N6CCNCC6)cc5)cnc34)ccnc2c1
Class Label: 0
--
Compound: CC(Cc1ccc(O)c(O)c1)C(C)Cc1ccc(O)c(O)c1 (stereo not given) [Nordihydroguaiaretic acid (NDGA)]
Class Label: 1
--
Compound: CCCCC[C@H](CC(=O)NO)C(=O)N[C@H](C(=O)N1CCC[C@H]1CO)C(C)C
Class Label: 1
--
Compound: CC(C)C(C(=O)O)N1C(=O)C(=Cc2ccc(Br)cc2)SC1=S (stereo not given)
Class Label: 2

###

# System: TOV-21G
# Run Description: cell viability relative to DMSO control (MTS) (fraction of DMSO control); higher = more viable cells / less growth inhibition
# Assay Conditions: 10 µM; 48 h
Where a name gives a salt, the structure may show the parent alone.
Entries and their cell viability

Molecule: NC1=N/C(=C2/CCNC(=O)c3[nH]ccc32)C(=O)N1
cell viability: 1.12

Molecule: CCOC(=O)C(C)(C)Oc1ccc(Cl)cc1 [Clofibrate]
cell viability: 1.03

Molecule: Cc1ncc2ccccc2c1C#N
cell viability: 1

Molecule: CNCCCN1c2ccccc2CCc2ccccc21 [desipramine hydrochloride]
cell viability: 0.745

Molecule: COc1cc([C@@H]2c3cc4c(cc3[C@@H](O[C@@H]3O[C@@H]5CO[C@@H](C)O[C@H]5[C@H](O)[C@H]3O)[C@H]3COC(=O)[C@H]23)OCO4)cc(OC)c1O [Etoposide (VP-16)]
cell viability: 0.658

Molecule: COc1ccc(Cn2ccc3ccc(C(=O)NO)cc32)cc1
cell viability: 0.919

Molecule: CC/C(=C(\c1ccccc1)c1ccc(OCCN(C)C)cc1)c1ccccc1 [Tamoxifen, citrate]
cell viability: 0.868

Molecule: CNC(=O)c1ccc(N2C(=S)N(c3ccc(C#N)c(C(F)(F)F)c3)C(=O)C2(C)C)cc1F
cell viability: 1.18

Molecule: Cc1cc(Nc2cc(N3CCN(C)CC3)nc(/C=C/c3ccccc3)n2)n[nH]1
cell viability: 0.289

Molecule: OCCn1cc(-c2cnc3nnn(Cc4ccc5ncccc5c4)c3n2)cn1
cell viability: 1.18

Molecule: CO[C@H]1C[C@@H]2CC[C@@H](C)[C@@](O)(O2)C(=O)C(=O)N2CCCC[C@H]2C(=O)O[C@H]([C@H](C)C[C@@H]2CC[C@@H](OC(=O)C(C)(CO)CO)[C@H](OC)C2)CC(=O)[C@H](C)/C=C(\C)[C@@H](O)[C@@H](OC)C(=O)[C@H](C)C[C@H](C)/C=C/C=C/C=C/1C
cell viability: 0.516

Molecule: Cc1nc2c(O)cccc2c(=O)[nH]1
cell viability: 0.856

Molecule: NNCCc1ccccc1
cell viability: 1.25

Molecule: C[C@H](NC(=O)/C(C#N)=C/c1cccc(Br)n1)c1ccccc1
cell viability: 0.392

Molecule: NS(=O)(=O)c1ccc(Nc2nc(OCC3CCCCC3)c3[nH]cnc3n2)cc1
cell viability: 0.784

Molecule: COc1cc2c(cc1OC)-c1[nH]nc(Nc3cccc(F)c3)c1C2
cell viability: 0.297

Molecule: CCNCCCNCCCCNCCCNCC
cell viability: 0.731

Molecule: Nc1ncn([C@@H]2O[C@H](CO)[C@@H](O)[C@H]2O)c(=O)n1
cell viability: 0.779

Molecule: CNC(=O)c1ccccc1Sc1ccc2c(/C=C/c3ccccn3)n[nH]c2c1
cell viability: 0.841

Molecule: CNC(=N)NCCC[C@H](N)C(=O)O
cell viability: 0.974

Molecule: COC(=O)Nc1nc2cc(C(=O)c3cccs3)ccc2[nH]1
cell viability: 0.464

Molecule: CC[C@]1(O)C[C@@H]2CN(CCc3c([nH]c4ccccc34)[C@@](C(=O)OC)(c3cc4c(cc3OC)N(C)[C@H]3[C@@](O)(C(=O)OC)[C@H](OC(C)=O)[C@]5(CC)C=CCN6CC[C@]43[C@@H]65)C2)C1 [Vinblastine sulfate]
cell viability: 0.427

Molecule: CCCC[C@@H](C)/C=C(C)/C=C(\C)C(=O)NC1=C[C@@](O)(/C=C/C=C/C=C/C(=O)NC2=C(O)CCC2=O)[C@@H]2O[C@@H]2C1=O
cell viability: 1.61

Molecule: C#Cc1cccc(Nc2ncnc3cc(OCCOC)c(OCCOC)cc23)c1
cell viability: 0.487

Molecule: CC(C)C[C@H](NC(=O)[C@@H](O)[C@H](N)Cc1ccccc1)C(=O)O
cell viability: 1.13

Molecule: Nc1ncnc2nc(-c3ccc(N4CCOCC4)nc3)cc(-c3cccc(Br)c3)c12
cell viability: 0.484

Molecule: CCCS(=O)(=O)Nc1ccc(F)c(C(=O)c2c[nH]c3ncc(-c4ccc(Cl)cc4)cc23)c1F
cell viability: 0.881

Molecule: O=C(O)c1ccccc1Nc1ccccc1
cell viability: 0.995

Molecule: CCOC(=O)C1=C(C)NC(=S)NC1c1cccc(O)c1 (centres undefined)
cell viability: 0.853

Molecule: O=C1NC(=O)c2c1c1c3ccccc3[nH]c1n1cncc21 [isogranulatimide]
cell viability: 1.47

Molecule: CSc1ccc(/C=C2/C(C)=C(CC(=O)O)c3cc(F)ccc32)cc1 [Sulindac sulfide]
cell viability: 1.3

Molecule: CCCOc1ccccc1-c1nc2[nH]nnc2c(=O)[nH]1
cell viability: 1.03

Molecule: CCN(CC)CCNC(=O)c1c(C)[nH]c(/C=C2\C(=O)Nc3ccc(F)cc32)c1C [sunitinib malate]
cell viability: 0.555

Molecule: O=C(CCCCCCC(=O)Nc1ccccc1)NO
cell viability: 0.388

###

# Test system: TOV-21G
# Run Description: cell viability relative to DMSO control (MTS) (fraction of DMSO control); higher = more viable cells / less growth inhibition
# Assay Conditions: 10 µM; 48 h
Entries and their cell viability
Endpoint Name: cell viability

Compound: Cc1cc([N+](=O)[O-])ccc1NS(=O)(=O)c1cc(Cl)ccc1Cl
Study System: TOV-21G
Endpoint Name: cell viability
Value: 1.14
//
Compound: Cc1cccc(-c2nn3c(c2-c2ccnc4ccc(C(N)=O)cc24)CCC3)n1
Study System: TOV-21G
Endpoint Name: cell viability
Value: 1.02
//
Compound: CO[C@@]12[C@H](COC(N)=O)C3=C(C(=O)C(C)=C(N)C3=O)N1C[C@@H]1N[C@@H]12 [Mitomycin C]
Study System: TOV-21G
Endpoint Name: cell viability
Value: 0.213
//
Compound: Oc1c2ccccc2c2c3c(cccc13)N=N2
Study System: TOV-21G
Endpoint Name: cell viability
Value: 0.65
//
Compound: Cc1ccc(Nc2nccc(N(C)c3ccc4c(C)n(C)nc4c3)n2)cc1S(N)(=O)=O [pazopanib]
Study System: TOV-21G
Endpoint Name: cell viability
Value: 0.864
//
Compound: COc1cc(O)c(CC=C(C)C)c(O)c1C(=O)/C=C/c1ccc(O)cc1 [Xanthohumol]
Study System: TOV-21G
Endpoint Name: cell viability
Value: 1.01
//
Compound: O=Nc1c(-c2c(O)[nH]c3ccccc23)[nH]c2ccccc12 [indirubin-3'-monoxime]
Study System: TOV-21G
Endpoint Name: cell viability
Value: 0.491
//
Compound: COC(=O)C[C@H](NC(=O)[C@H](C)NC(=O)[C@@H](NC(=O)OCc1ccccc1)C(C)C)C(=O)CF
Study System: TOV-21G
Endpoint Name: cell viability
Value: 1.16
//
Compound: COc1cc(/C=C(\C#N)C(N)=O)cc(CSc2nc3ccccc3s2)c1O
Study System: TOV-21G
Endpoint Name: cell viability
Value: 1.07
